Values compiled from patent US20110183975A1.

molecular target: human NIK (U-2 OS Tet-On-NIK cells) (Homo sapiens); test: Cellular NIK inhibitory activity using ELISA-based IKKalpha phosphorylation assay; conditions: NIK dependent IKKalpha phosphorylation, doxycycline 2 micrograms/ml, 24 hours
Sequence (Q99558 whole entry): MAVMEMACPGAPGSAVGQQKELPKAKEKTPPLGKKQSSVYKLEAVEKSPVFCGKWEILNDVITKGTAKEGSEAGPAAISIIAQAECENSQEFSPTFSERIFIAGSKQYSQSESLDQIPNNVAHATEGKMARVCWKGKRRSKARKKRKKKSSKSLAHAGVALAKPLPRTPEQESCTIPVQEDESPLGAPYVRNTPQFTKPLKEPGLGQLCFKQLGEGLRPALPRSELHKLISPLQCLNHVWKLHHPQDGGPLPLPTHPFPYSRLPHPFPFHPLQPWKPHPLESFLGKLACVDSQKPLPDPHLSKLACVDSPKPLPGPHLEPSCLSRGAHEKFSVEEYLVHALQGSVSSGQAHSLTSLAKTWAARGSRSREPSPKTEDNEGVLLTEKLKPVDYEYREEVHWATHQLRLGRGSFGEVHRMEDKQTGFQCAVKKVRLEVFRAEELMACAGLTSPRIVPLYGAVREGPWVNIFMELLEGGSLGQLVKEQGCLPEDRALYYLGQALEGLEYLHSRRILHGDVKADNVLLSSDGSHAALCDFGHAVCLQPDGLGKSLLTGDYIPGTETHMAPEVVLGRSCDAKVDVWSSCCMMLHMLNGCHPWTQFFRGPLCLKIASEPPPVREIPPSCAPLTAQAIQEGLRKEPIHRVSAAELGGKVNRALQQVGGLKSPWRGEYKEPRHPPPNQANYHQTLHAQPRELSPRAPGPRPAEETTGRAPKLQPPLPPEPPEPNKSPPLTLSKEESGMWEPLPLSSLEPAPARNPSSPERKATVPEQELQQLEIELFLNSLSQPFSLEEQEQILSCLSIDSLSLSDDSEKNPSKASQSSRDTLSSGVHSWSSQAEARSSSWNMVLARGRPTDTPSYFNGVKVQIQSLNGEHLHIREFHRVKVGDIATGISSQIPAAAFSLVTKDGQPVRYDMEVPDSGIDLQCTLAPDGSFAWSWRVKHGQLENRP
Reported values of pIC50 for individual entries
The scale used: pIC50 is minus the common logarithm of the concentration in molar units.

For orientation, consider the following solved cases.
[[record]]
compound = "Cc1ccc(C(N)=O)cc1Nc1nccc(-c2cn(C(C)C)c3cnccc23)n1 [Example 85]"
measured_property = "pIC50"
recorded_value = 6.85

[[record]]
compound = "CC(C)n1cc(-c2ccnc(Nc3cc(C(N)=O)ccc3OCc3ccccc3)n2)c2ccncc21 [Example 94]"
measured_property = "pIC50"
recorded_value = 6.64


Below: the item to evaluate.
Note to self: pIC50 recorded for CNC(=O)c1ccc(OC)c(Nc2nccc(-c3cn(C(C)C)c4cnccc34)n2)c1 [Example 71] was 6.70

* * *

biological target: Truncated human NIK (Homo sapiens); experiment: NIK inhibitory activity: SRPKtide phosphorylation with [γ-33P] ATP, filter plate; details: GST-tagged truncated human NIK, 20 μM peptide substrate, 10 μM ATP, 25° C., 240 minutes
Sequence (Q99558 319-947): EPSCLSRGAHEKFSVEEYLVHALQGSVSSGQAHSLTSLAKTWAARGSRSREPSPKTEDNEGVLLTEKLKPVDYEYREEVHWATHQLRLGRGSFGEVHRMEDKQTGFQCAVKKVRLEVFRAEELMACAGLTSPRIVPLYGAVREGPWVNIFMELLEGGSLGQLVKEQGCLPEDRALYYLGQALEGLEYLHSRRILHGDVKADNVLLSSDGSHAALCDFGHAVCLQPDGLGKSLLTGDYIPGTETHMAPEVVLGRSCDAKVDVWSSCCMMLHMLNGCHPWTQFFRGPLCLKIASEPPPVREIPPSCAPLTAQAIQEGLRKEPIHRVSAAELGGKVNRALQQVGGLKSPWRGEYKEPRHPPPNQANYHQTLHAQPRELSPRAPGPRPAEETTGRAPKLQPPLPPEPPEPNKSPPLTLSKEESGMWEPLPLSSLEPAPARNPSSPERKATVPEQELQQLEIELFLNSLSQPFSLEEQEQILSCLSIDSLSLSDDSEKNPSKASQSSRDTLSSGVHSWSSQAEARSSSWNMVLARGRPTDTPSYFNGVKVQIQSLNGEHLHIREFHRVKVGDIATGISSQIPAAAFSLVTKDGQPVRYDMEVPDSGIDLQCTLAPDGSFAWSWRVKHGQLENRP
Consider the following molecules and their measured IC50 readings.
Kindly provide the numeric value in nM only, without the unit symbol.

Form: item CNC(=O)c1ccc(OC)c(Nc2nccc(-c3cn(C(C)C)c4cnccc34)n2)c1 [Example 71] ; test system Truncated human NIK (Homo sapiens); IC50: 26.1

// returns IC50 for Cc1ccc(C(N)=O)cc1Nc1nccc(-c2cn(C(C)C)c3cnccc23)n1 [Example 85] with Truncated human NIK (Homo sapiens); value = 63.4

# CC(C)n1cc(-c2ccnc(Nc3ccccc3)n2)c2ccncc21 [Example 3] with Truncated human NIK (Homo sapiens): IC50 is 423

Entry CC(C)n1cc(-c2ccnc(Nc3cc(C(N)=O)ccc3OCc3ccccc3)n2)c2ccncc21 [Example 94] , Truncated human NIK (Homo sapiens) data, IC50 value: 84.5

* * *

molecular target: human ROCK2 catalytic domain (Homo sapiens)
Listed below: pIC50 values for each entry.
# pIC50 is unitless: minus log10 of the molar concentration; print number only

Here are 2 compounds together with their reported answers.
[[record]]
chemical_smiles = "CC(C)n1cc(-c2ccnc(Nc3ccccc3)n2)c2ccncc21"
measured_property = "pIC50"
recorded_value = 7.07

[[record]]
chemical_smiles = "CC(C)n1cc(-c2ccnc(Nc3cc(C(N)=O)ccc3OCc3ccccc3)n2)c2ccncc21"
measured_property = "pIC50"
recorded_value = 6.00


Record CNC(=O)c1ccc(OC)c(Nc2nccc(-c3cn(C(C)C)c4cnccc34)n2)c1 / human ROCK2 catalytic domain (Homo sapiens), pIC50 recorded as 5.34

* * *

target: human ROCK2 catalytic domain (Homo sapiens, UniProt O75116); construct: made in house; host or cells: Sf9 insect cells; assay: ROCK2 inhibitory activity: peptide phosphorylation, IMAP fluorescence polarization; type: biochemical; details: IC50 for ROCK2 divided by IC50 for NIK
Sequence (O75116 11-552): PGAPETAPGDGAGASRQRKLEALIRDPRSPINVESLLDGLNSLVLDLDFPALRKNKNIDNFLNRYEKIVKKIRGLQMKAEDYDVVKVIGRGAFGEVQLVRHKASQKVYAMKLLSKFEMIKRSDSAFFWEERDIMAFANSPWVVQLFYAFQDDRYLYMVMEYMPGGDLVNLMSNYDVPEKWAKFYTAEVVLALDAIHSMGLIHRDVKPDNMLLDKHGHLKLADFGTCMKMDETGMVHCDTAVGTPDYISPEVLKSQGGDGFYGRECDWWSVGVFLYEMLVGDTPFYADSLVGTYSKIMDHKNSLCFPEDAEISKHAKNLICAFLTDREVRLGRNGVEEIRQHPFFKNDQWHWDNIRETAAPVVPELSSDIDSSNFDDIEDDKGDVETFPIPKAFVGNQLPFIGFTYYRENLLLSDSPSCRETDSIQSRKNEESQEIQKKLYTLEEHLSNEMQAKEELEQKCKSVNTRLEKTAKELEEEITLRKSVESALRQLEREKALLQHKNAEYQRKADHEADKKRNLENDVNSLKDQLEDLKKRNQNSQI
measured_property: Selectivity of NIK over ROCK2
Hey, just send me the number, nothing else.

[[record]]
chemical_smiles = "Cc1ccc(C(N)=O)cc1Nc1nccc(-c2cn(C(C)C)c3cnccc23)n1"
assay_system = "human ROCK2 catalytic domain (Homo sapiens, UniProt O75116)"
recorded_value = 40.9


GET /value?item= CNC(=O)c1ccc(OC)c(Nc2nccc(-c3cn(C(C)C)c4cnccc34)n2)c1 &field=Selectivity of NIK over ROCK2 returns 173.3

Value of Selectivity of NIK over ROCK2 reported for the molecule CC(C)n1cc(-c2ccnc(Nc3ccccc3)n2)c2ccncc21 is 0.20

Lab note: measured Selectivity of NIK over ROCK2 of CC(C)n1cc(-c2ccnc(Nc3cc(C(N)=O)ccc3OCc3ccccc3)n2)c2ccncc21 was 11.9
